# targetOrTestSystem: BTK (Homo sapiens, UniProt Q06187)
# Sequence (Q06187 402-655 limits assumed): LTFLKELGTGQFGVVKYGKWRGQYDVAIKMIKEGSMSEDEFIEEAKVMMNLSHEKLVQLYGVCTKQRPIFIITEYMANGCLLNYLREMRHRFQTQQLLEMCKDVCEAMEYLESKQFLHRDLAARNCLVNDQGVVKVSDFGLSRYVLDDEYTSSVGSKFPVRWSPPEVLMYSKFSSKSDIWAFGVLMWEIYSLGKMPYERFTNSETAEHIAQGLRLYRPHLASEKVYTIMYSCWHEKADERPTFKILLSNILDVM
# protocolDetails: biochemical
# testParameters: read-out: BTK inhibition (%), 0.75 uM BTK, […] probe 3l, 15 min preincubation
Outcome label depends on inhibition at 10 µM relative to 20%: at/above gives Y, below gives N.

Use the examples below as a reference point.
• CCOC(=O)c1ccc(N2NC(=O)/C(=C/c3ccc([N+](=O)[O-])o3)C2=O)cc1 = Y
• COc1ccc2cc3[n+](cc2c1O)CCc1cc2c(cc1-3)OCO2 = Y
• CCC1(c2ccc(N)cc2)CCC(=O)NC1=O (stereo not drawn) = N
• Cn1cc(-c2cnn3c(N)c(Br)c([C@@H]4CCCNC4)nc23)cn1 = N
• COc1ccc(-c2nc(-c3cc(C(F)(F)F)cc(C(F)(F)F)c3)n(Cc3ccc(C(N)=O)cc3)c2-c2ccc(OC)cc2)cc1 = Y
• OCCOCCN1CCN(Cc2cccc(Oc3ccccc3)c2)CC1 = N

Record "CCCCCCCCOC(=O)c1cc(O)c(O)c(O)c1" ; criterion: inhibition at 10 µM no lower than 20%. Met? N

Same for NC(CO)C(=O)O (stereo not drawn) N
